molecular target: HIV-1 reverse transcriptase, wild type (HIV-1, UniProt P04585;P04585 588-1147;588-1027); assay: SPR; SPR: 10 mM HEPES pH 7.5, 150 mM NaCl, 80 mM KCl, 5 mM MgCl2, 25 C, RT on NTA chip; NMR: 10 mM Tris-d11 pD 7.6, 200 mM KCl, 1.5 mM sodium azide, 4 mM MgCl2; inhibition assay 25 C, 30 min; conditions: protein: recombinant; (NTA chip capture); copies: 1;1
value-kind: pKd
Answers are plain numbers, as −log10 of the molar value.

// solved cases for pKd follow
> print(dat)
                                     binder  measured.result
1  AGTAAGACTATAATTCAGTCCTCATTGATTTCCCACATCG (ssDNA) [KY1]             5.66
2  CACACTAAGGGAGTAGGAATCCGCGGTCACAATGTTCCTG (ssDNA) [KY22]             5.98

Go through the list and state pKd for each entry.
1. GTGCAAGCGTACGAAGGGATAATTCACTCTAGGAGCTTCT (ssDNA) [KY44]
2. CTATAGGGGGTTGCATCTTAGACATTAATGTTCATTTACA (ssDNA) [KY23]
3. CCAGAAAGCTCGGGTTCGTTCCACAAATAACACTTGCCC (ssDNA) [KY28]

Result:
1. 5.67
2. 7.26
3. 5.99
